The reported numbers originate from patent US20160264649A1.

# IC50 (neutralization) values compiled below
biological target: HIV-1 Env of isolate MGRM-F1-021 (subtype F) (HIV-1); assay: cell-based or functional assay

Example results:
Binder	IC50 (neutralization)
PGT-123 (antibody, V domains shown) VH: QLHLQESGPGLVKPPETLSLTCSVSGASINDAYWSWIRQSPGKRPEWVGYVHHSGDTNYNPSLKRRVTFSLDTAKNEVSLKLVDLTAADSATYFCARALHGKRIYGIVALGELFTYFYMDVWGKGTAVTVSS VL: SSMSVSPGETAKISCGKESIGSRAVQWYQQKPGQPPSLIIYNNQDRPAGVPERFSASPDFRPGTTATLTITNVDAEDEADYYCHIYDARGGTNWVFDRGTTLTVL	0.307 µg/mL
PGT-125 (antibody, V domains shown) VH: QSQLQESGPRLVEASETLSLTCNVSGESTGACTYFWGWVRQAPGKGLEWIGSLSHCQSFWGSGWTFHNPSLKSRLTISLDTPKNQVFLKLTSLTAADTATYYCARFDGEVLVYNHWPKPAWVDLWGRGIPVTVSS VL: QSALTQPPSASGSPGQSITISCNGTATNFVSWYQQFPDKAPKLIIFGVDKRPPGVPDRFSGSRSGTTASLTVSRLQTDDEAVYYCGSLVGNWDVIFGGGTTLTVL	> 50 µg/mL
PGT-127 (antibody, V domains shown) VH: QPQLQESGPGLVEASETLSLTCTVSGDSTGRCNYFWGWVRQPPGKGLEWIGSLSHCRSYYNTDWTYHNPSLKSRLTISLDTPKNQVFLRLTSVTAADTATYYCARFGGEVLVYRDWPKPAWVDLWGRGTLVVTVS VL: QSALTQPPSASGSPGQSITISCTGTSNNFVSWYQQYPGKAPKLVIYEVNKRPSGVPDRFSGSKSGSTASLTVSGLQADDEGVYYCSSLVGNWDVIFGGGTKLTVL	> 50 µg/mL
PGT-137 (antibody, V domains shown) VH: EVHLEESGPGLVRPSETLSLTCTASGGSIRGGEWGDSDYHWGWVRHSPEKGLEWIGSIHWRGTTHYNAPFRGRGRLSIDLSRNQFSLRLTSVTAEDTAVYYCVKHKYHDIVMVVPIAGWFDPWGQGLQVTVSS VL: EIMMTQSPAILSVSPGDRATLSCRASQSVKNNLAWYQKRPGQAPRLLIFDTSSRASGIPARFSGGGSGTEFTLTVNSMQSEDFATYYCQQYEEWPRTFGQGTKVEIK	> 50 µg/mL

Consider the record given below.
Any idea what IC50 (neutralization) was measured for PGT-136 (antibody, V domains shown) VH: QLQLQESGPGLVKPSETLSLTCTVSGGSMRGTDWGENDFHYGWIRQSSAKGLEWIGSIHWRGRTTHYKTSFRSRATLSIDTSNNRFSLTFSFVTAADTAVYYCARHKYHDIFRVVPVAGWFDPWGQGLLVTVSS VL: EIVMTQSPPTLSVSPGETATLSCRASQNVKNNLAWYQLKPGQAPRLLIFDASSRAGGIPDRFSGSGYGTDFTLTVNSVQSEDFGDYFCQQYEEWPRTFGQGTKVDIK ?
> 50 µg/mL
